Assay: Dissociation constant pKa (N) of the compound
Assay type: physicochemical
Quantity measured: pKa

O=C(O)C1CCCNC1 (stereo unspecified) [NIPECOTIC ACID] ... 10.3

###

Target: GABA-A receptor; anion channel (Rattus norvegicus) (UniProt O09028+P15431+P18506+P18508+P19969+P20236+P23574+P23576+P28471+P28473+P30191+P62813+P63079+P63138+Q91ZM7+Q9ES14)
Experiment: Displacement of [3H]- muscimol from GABA-A receptor from rat cerebellum membrane at 100 uM
Assay type: tissue-based
Quantity measured: inhibition (%)

O=C(O)C1CN(CCC=C(c2ccccc2)c2ccccc2)CCC1O (configuration not stated) ... 48
O=C(O)C1=CCCNC1 ... 27
O=C(O)C1CNCCC1O (configuration not stated) ... 10
O=C(O)CCCNCCC=C(c1ccccc1)c1ccccc1 ... 35
O=C(O)CC1CCN(CCC=C(c2ccccc2)c2ccccc2)C1 (configuration not stated) ... 20
O=C(O)C1CCCN(CCC=C(c2ccccc2)c2ccccc2)C1 (configuration not stated) ... 8
O=C(O)C1=CCCN(CCC=C(c2ccccc2)c2ccccc2)C1 ... 8

The measurements presented in this section are drawn from ChEMBL document CHEMBL1122999.
